System: RARb:RXRa (NR concentration 270 nM, RXRa partner concentration 90 nM)
method.notes: PBM binding z-score (relative to random genomic background probes); higher = stronger binding; sequences stand for … in GC…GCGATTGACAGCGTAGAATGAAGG
Would you kindly list PBM binding z-score for each of these sequences?
One number for each entry.

CCTACTGGGCCAAGGTAATTGATCAGTCAAAGCA	0.0612
ACTAGTTGGTCAGCTGCGGTCACACACAATTCGG	2.26
ATATCTAGGTAAAGATAGTTCAGTGAATGCAAAT	0.775
AGAACGAGGGAAATGAGTTGATAGCACGGGTGGC	-0.45
TAGCTTAGGTCAGATCGGGCCAGTATACGCTATA	3.54

The record that follows has no PBM binding z-score shown yet.
State the recorded PBM binding z-score for this entry: ATCTCTACGTAACAAGTTCAGTGAAAGAGAGGAC 1.46

###

Test system: PPARg:RXRa 270nM:90nM, anti-RXR (NR concentration 270 nM, RXRa partner concentration 90 nM)
method.notes: PBM binding z-score (relative to random genomic background probes); higher = stronger binding; sequences stand for … in GC…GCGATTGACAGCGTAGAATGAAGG
Would you kindly list PBM binding z-score for each of these sequences?
Numbers only.

Solved entries:
GCAGACAGGTGAAACGCAGATAACTCAGGGTGGC	-0.0865
GCTATTAGTTGAAAGTGCAACCGAATGATTCTCG	2.92
ACTAGCAGGCCAAGGGTAACTCAAGATTAGTCCG	4.86
CAAACTAGGTCACAGAGGTCTAAGTCCGTGCGTA	6.93
TAGCCTAGGTCATTCAGGGGCCGGTATAGAAAGC	2.46
CGTCCAAGGTCATAGGCGGTCAGTGAAGACAGAT	5.18

Go through the items and report each one's PBM binding z-score.
1. GTACCAAGGTGAATGGGTCGTTGATGAGTAGGCG
2. CGTCCCAGGTCAGCAGGTCAGTGAAAGCGACGTG
3. CCTACTGGGGCAGAAAGGTTACCATACCATCCGG
4. TGAATGAGGATAAAGATCAGGGAACGTGGCGTCG
5. AGAACGAGGTTATTAAGATCAGGGAATTGCGGTC
6. CCGACAGGGGCAAGGTTACCATAACGCACAGCCA

1: 1.19; 2: 2.88; 3: 2.74; 4: 3.78; 5: 1.68; 6: 0.765

###

Test system: VDR:RXRa (NR concentration 270 nM, RXRa partner concentration 90 nM)
method.notes: PBM binding z-score (relative to random genomic background probes); higher = stronger binding; sequences stand for … in GC…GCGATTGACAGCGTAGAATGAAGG
Recorded PBM binding z-score determines the group label, using one: < 0.9; two: ≥ 0.9 and < 3; three: ≥ 3

As a guide, the following entries are already answered.
CCTTACGGGTCACGAGGTAATAGCACGACGAGCG	three
CGAACTAGGTCATCCAGGACAGGGAATACATTGA	three
TCAGACAGGTGAAAGTAACTCAGGTACGCAGTCG	one
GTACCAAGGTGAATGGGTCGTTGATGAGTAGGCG	two
CCTATTAATTGACCATAAGGGCAACCGAAGCTCG	one
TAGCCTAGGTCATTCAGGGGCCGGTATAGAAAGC	two
CCTATTAGTTGACCATAAGGGCAACCAAAGCTCG	two
CATACAGGCTCAGCTAGGCCAGAGTAGGGACGGC	one
CCTTCTGGGCCAAAAAGGTCATTGATGCCGATAA	three
CCTAGCAGGCCAATCTGGGTCAGTCAAGGCTTGA	one

Please classify: CTCGAAAGGTCGGTTGAGGTGAGCATACGGATAA two

Please classify: CTCGAAAGGTCGGTTGAGGTGTGTATACGGATAA two

Please classify: GCTAGTTGGTCATTAAAAGGTCACACACCGGTCG three

Please classify: AATACAGGGTCACTAGGCCAGAGCAGGTACGAAT three

Please classify: TCGAGGAGGTTAGGGGCATTCAGAATGGCGTCGA two

Please classify: ACTATTAGTTGACTTAGGGCAACCAATACGACGC one

Please classify: TCTTGTAGCTCAACAGGAGGTTAAGAAAGATCGA one

Please classify: ACAGACAGGTGATGAAGGTTACTCAGGCTATCAT two

Please classify: GCTACTAGGTCAACTGATGGTCAGCTAAAGCTCG two

Please classify: TCGAGTAGGTTACCAATGGGACATTCAGCTTTCT one

Please classify: CGTCAAAGTTCAGGGTAACGTAACAGAAAGCAGC two

Please classify: CCAGACAGGTGAGAATGTAACTCAGCCTCGATTA one

Please classify: GGAACGAGGGCATTCGAGTCGATAGCATGGCGAT two

Please classify: CTCGAAAGGTCGTGCTAAGGTGAGTATACCAAAC three

Please classify: CCTATTAGTTGACCTTAAGGGCAACCGAAGCTCG three
